target: cpSRP54–His (recombinant mature cpSRP54) (Arabidopsis thaliana, UniProt P37107); construct: mature protein, residues 79-564 (transit peptide removed), C-terminal His6, E. coli Rosetta (DE3), EDTA-treated then SEC in Mg buffer; experiment: isothermal titration calorimetry; conditions: read-out: dissociation constant
Sequence (P37107 79-564): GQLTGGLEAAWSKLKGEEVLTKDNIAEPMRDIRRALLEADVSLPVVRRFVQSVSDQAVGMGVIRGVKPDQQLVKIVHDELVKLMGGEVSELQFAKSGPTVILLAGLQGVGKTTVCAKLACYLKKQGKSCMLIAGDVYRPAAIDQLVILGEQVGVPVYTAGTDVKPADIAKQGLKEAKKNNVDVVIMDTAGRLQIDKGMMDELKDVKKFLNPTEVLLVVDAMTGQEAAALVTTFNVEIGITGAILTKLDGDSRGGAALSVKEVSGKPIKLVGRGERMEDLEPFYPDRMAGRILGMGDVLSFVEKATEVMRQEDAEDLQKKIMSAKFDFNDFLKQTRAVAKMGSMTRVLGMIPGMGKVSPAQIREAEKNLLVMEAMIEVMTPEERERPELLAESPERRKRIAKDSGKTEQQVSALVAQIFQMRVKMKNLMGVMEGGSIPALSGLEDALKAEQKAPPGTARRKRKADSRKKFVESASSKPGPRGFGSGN
Could you please report measured pKd for the items listed next?
As a rule, pKd stands for the negative log10 of the concentration, concentration in M.

The measured pKd associated with Nc1nc2c(ncn2[C@@H]2O[C@H](COP(=O)(O)OP(=O)(O)OP(=O)(O)O)[C@@H](O)[C@H]2O)c(=O)[nH]1 [GTP] reads 4.27

The measured pKd associated with Nc1nc2c(ncn2[C@@H]2O[C@H](COP(=O)(O)OP(=O)(O)O)[C@@H](O)[C@H]2O)c(=O)[nH]1 [GDP] reads 4.52

Where do these numbers come from? They come from paper PMC11427828.
